Sourced from paper PMC8231256

Overview of reported CC50 at 24 h across a group of molecules:
test: LM-1 macrophage cytotoxicity (Alamar Blue); assay type: cell-based, murine; conditions: mouse
Answer format: numeric, µM implied, no suffix.

In: Annotate the molecule C#CCCCCC(=O)N[C@H](C(=O)N[C@H]1CCN([C@H](C(=O)N[C@@H](C)C(=O)N[C@@H](Cc2ccccc2)C(=O)NCCCCCCN)C(C)C)C1=O)C(C)C [peptide 30] with its measured CC50 at 24 h.
Out: 407

In: Annotate the molecule C#CCCCCC(=O)N[C@H](C(=O)N[C@H](C(=O)N[C@H]1CCN([C@@H](C)C(=O)N[C@@H](Cc2ccccc2)C(=O)NCCCCCCN)C1=O)C(C)C)C(C)C [peptide 31] with its measured CC50 at 24 h.
Out: 389

In: Annotate the molecule C#CCCCCC(=O)Nn1c(C)cn([C@H](C(=O)N[C@H](C(=O)N[C@@H](C)C(=O)N[C@@H](Cc2ccccc2)C(=O)O)C(C)C)C(C)C)c1=O [peptide 36, HCC(CH2)4CO-(5-Me)Nai-Val-Val-Ala-Phe-OH] with its measured CC50 at 24 h.
Out: 436

====

Overview of reported EC50 across a group of compounds:
test system: L. infantum (MHOM/MA/67/ITMAP-263) wild-type strain (WT) promastigotes; assay type: cell-based, Leishmania infantum; details: promastigotes, 72 h, 25 °C; 95% confidence interval in brackets (n = 3); read-out: Ldi WT EC50

Below: 2 compounds and their reported EC50.
{"Compound": "C#CCCCCC(=O)Nn1c(C)cn([C@H](C(=O)N[C@H](C(=O)N[C@@H](C)C(=O)N[C@@H](Cc2ccccc2)C(=O)O)C(C)C)C(C)C)c1=O [peptide 36, HCC(CH2)4CO-(5-Me)Nai-Val-Val-Ala-Phe-OH]", "Assay System": "L. infantum (MHOM/MA/67/ITMAP-263) wild-type strain (WT) promastigotes", "EC50": "> 300 µM"}
{"Compound": "C#CCCCCC(=O)N[C@H](C(=O)N[C@H](C(=O)N[C@H]1CCN([C@@H](C)C(=O)N[C@@H](Cc2ccccc2)C(=O)O)C1=O)C(C)C)C(C)C [peptide 25, HCC(CH2)4CO-Val-Val-Agl-Ala-Phe-OH]", "Assay System": "L. infantum (MHOM/MA/67/ITMAP-263) wild-type strain (WT) promastigotes", "EC50": "> 300 µM"}

Now consider a different compound.
In: Annotate the compound C#CCCCCC(=O)N[C@H](C(=O)Nn1c(C)cn([C@H](C(=O)N[C@@H](C)C(=O)N[C@@H](Cc2ccccc2)C(=O)O)C(C)C)c1=O)C(C)C [peptide 37, HCC(CH2)4CO-Val-(5-Me)Nai-Val-Ala-Phe-OH] with its measured EC50.
Out: > 300 µM

====

experiment: LM-1 macrophage cytotoxicity (Alamar Blue); format: cell-based, murine; details: mouse
Where a SMILES comes first, the peptide text is derived from it. [ ]: non-standard residue; d: D form. The star is where a group is joined. NMeV = CN[C@H](C(=O)O)C(C)C; Hept6ynoyl = C#CCCCCC(=O)*; NMeA = CN[C@@H](C)C(=O)O; NH(CH2)6NH2 = NCCCCCCN*
Recorded Metric: CC50 at 24 h
Number plus unit, in that order.

{"Compound": "C#CCCCCC(=O)N(C)[C@H](C(=O)N(C)[C@H]1CCN([C@H](C(=O)N(C)[C@@H](C)C(=O)N(C)[C@@H](Cc2ccccc2)C(=O)NCCCCCCN)C(C)C)C1=O)C(C)C [peptide 34]", "Recorded Metric": "CC50 at 24 h", "Readout Value": "398 µM"}
{"Compound": "C#CCCCCC(=O)N[C@H](C(=O)N[C@H](C(=O)N[C@H](C(=O)N[C@H]1CCN([C@@H](Cc2ccccc2)C(=O)NCCCCCCN)C1=O)C(C)C)C(C)C)C(C)C [peptide 32]", "Recorded Metric": "CC50 at 24 h", "Readout Value": "389 µM"}
{"Compound": "C#CCCCCC(=O)N[C@H](C(=O)N[C@H]1CCN([C@H](C(=O)N[C@@H](C)C(=O)N[C@@H](Cc2ccccc2)C(=O)O)C(C)C)C1=O)C(C)C [peptide 24, HCC(CH2)4CO-Val-Agl-Val-Ala-Phe-OH]", "Recorded Metric": "CC50 at 24 h", "Readout Value": "398 µM"}
{"Compound": "C#CCCCCC(=O)N[C@H](C(=O)Nn1c(C)cn([C@H](C(=O)N[C@@H](C)C(=O)N[C@@H](Cc2ccccc2)C(=O)O)C(C)C)c1=O)C(C)C [peptide 37, HCC(CH2)4CO-Val-(5-Me)Nai-Val-Ala-Phe-OH]", "Recorded Metric": "CC50 at 24 h", "Readout Value": "407 µM"}
{"Compound": "C#CCCCCC(=O)N[C@H](C(=O)N[C@H](C(=O)N[C@H](C(=O)N(C)[C@@H](C)C(=O)N[C@@H](Cc1ccccc1)C(=O)NCCCCCCN)C(C)C)C(C)C)C(C)C [peptide 21] (Hept6ynoyl-VVV[NMeA]F-{NH(CH2)6NH2})", "Recorded Metric": "CC50 at 24 h", "Readout Value": "1440 µM"}
{"Compound": "C#CCCCCC(=O)N(C)[C@H]1CCN([C@H](C(=O)N(C)[C@H](C(=O)N(C)[C@@H](C)C(=O)N(C)[C@@H](Cc2ccccc2)C(=O)O)C(C)C)C(C)C)C1=O [peptide 26]", "Recorded Metric": "CC50 at 24 h", "Readout Value": "316 µM"}

In: Annotate the compound C#CCCCCC(=O)N[C@H](C(=O)N[C@H](C(=O)N[C@H](C(=O)N[C@@H](C)C(=O)N[C@@H](Cc1ccccc1)C(=O)O)C(C)C)C(C)C)C(C)C [peptide 15, HCC(CH2)4CO-Val-Val-Val-Ala-Phe-OH] (Hept6ynoyl-VVVAF-OH) with its measured CC50 at 24 h.
Out: 316 µM

In: Annotate the compound C#CCCCCC(=O)N[C@H](C(=O)N[C@H](C(=O)N(C)[C@H](C(=O)N[C@@H](C)C(=O)N[C@@H](Cc1ccccc1)C(=O)NCCCCCCN)C(C)C)C(C)C)C(C)C [peptide 20] (Hept6ynoyl-VV[NMeV]AF-{NH(CH2)6NH2}) with its measured CC50 at 24 h.
Out: 281 µM

In: Annotate the compound C#CCCCCC(=O)N(C)[C@H]1CCN([C@H](C(=O)N(C)[C@H](C(=O)N(C)[C@@H](C)C(=O)N(C)[C@@H](Cc2ccccc2)C(=O)NCCCCCCN)C(C)C)C(C)C)C1=O [peptide 33] with its measured CC50 at 24 h.
Out: 407 µM

In: Annotate the compound C#CCCCCC(=O)N(C)[C@H](C(=O)N(C)[C@H](C(=O)N(C)[C@H]1CCN([C@@H](C)C(=O)N(C)[C@@H](Cc2ccccc2)C(=O)NCCCCCCN)C1=O)C(C)C)C(C)C [peptide 35] with its measured CC50 at 24 h.
Out: 371 µM

In: Annotate the compound C#CCCCCC(=O)N[C@H]1CCN([C@H](C(=O)N[C@H](C(=O)N[C@@H](C)C(=O)N[C@@H](Cc2ccccc2)C(=O)NCCCCCCN)C(C)C)C(C)C)C1=O [peptide 29] with its measured CC50 at 24 h.
Out: 416 µM
